Every entry's value here was drawn from paper PMC9551036.

# measurement.notes: Cell viability assay (CellTiter Glo) in a panel of cell lines;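 further: percent of DMSO-treated control cells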
# Format: cell-based, human
# stated.conditions: human, NCI-H23 cells, NCI-H23; log10 conc -5.90309 mol/l
endpoint: viability at 1.25 µM
Kindly write the number and append the unit.

For reference, reported viability at 1.25 µM for Cc1ncsc1-c1ccc(C(CCC(C)CCN2CCC(c3ccc4c(c3)n(C3CCCC3)c3nc(=O)c5c(Br)cccc5n43)CC2)NC(=O)C2CC(O)CN2C(=O)C(NC(=O)C2(F)CC2)C(C)(C)C)cc1 (stereo not shown) [ACBI2] stands at 75.3%

----------
The reader will find reported SMARCA2 Dmax values listed item by item below.
# target.or.test.system: SMARCA2 (Homo sapiens, UniProt P51531)
# Sequence (P51531 whole entry): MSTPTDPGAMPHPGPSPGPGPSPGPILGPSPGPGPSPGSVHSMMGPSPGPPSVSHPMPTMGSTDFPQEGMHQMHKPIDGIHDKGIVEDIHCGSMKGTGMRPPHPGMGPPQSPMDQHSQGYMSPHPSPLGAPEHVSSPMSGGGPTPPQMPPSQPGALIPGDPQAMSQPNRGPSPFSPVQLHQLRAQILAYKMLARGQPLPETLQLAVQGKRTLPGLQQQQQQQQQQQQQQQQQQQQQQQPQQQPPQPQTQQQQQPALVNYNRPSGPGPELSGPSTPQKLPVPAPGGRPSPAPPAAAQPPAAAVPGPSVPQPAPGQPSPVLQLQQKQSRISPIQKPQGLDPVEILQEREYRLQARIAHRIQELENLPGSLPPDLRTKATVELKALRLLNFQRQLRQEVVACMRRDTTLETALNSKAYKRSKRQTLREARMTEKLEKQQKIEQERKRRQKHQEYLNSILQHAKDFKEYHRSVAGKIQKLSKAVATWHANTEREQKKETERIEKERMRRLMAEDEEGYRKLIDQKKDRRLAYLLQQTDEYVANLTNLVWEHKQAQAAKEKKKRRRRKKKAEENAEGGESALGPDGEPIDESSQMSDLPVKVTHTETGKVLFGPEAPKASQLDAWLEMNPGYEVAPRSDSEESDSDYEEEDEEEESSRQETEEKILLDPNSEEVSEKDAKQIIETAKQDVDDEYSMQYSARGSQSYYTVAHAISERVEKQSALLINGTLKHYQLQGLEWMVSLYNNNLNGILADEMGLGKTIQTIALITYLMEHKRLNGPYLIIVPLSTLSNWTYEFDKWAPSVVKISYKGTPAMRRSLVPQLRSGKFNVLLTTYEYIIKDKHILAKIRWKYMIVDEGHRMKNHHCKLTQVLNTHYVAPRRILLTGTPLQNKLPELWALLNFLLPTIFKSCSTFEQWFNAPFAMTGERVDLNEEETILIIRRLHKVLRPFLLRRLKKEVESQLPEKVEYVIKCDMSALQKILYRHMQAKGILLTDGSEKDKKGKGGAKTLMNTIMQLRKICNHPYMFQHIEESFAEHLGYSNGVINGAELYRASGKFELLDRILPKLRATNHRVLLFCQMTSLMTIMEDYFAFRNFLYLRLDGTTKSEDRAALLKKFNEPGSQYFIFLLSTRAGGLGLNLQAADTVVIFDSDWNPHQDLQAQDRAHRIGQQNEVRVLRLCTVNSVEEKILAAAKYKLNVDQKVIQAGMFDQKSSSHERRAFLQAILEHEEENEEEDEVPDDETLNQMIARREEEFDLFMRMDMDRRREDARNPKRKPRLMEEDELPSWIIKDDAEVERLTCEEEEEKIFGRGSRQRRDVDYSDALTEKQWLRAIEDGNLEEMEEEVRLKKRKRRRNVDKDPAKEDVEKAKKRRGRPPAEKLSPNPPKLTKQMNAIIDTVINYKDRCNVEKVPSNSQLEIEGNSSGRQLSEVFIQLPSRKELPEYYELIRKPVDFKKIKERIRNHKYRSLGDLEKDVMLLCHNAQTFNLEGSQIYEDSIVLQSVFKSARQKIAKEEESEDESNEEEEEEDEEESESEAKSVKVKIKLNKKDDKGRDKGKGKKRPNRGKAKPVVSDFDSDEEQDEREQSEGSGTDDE
# measurement.notes: SMARCA2 capillary electrophoresis protein assay in RKO cells
# Assay type: cell-based
# Set-up: endogenous in cells; host or cells: RKO, NCI-H1568, A549, HCT116, LU99, HCC-364, HCT-15, HCC4006, SK-N-AS
# stated.conditions: RKO (4 h); mean ± SD
Express it in %; write the number only.

Reference set (3 entries):
{"columns": ["smiles", "readout.units", "SMARCA2 Dmax"],
 "data": [
  ["Cc1ncsc1-c1ccc([C@H](COCCCN2CCC(c3ccc4c(c3)n(C3CCCC3)c3nc(=O)c5c(Br)cccc5n43)CC2)NC(=O)[C@@H]2C[C@@H](O)CN2C(=O)[C@@H](NC(=O)C2(F)CC2)C(C)(C)C)cc1", "%", 70],
  ["Cc1ncsc1-c1ccc(CNC(=O)[C@@H]2C[C@@H](O)CN2C(=O)[C@@H](NC(=O)C2(F)CC2)C(C)(C)C)c(OCCOCCOCCOCCN2CCC(c3ccc4c(c3)n(C3CCCC3)c3nc(=O)c5c(Br)cccc5n43)CC2)c1", "%", 71],
  ["Cc1ncsc1-c1ccc([C@H](CC[C@@H](C)CCN2CCC(c3ccc4c(c3)n(C3CCCC3)c3nc(=O)c5c(Br)cccc5n43)CC2)NC(=O)[C@@H]2C[C@@H](O)CN2C(=O)[C@@H](NC(=O)C2(F)CC2)C(C)(C)C)cc1", "%", 74]
]}

Entry Cc1ncsc1-c1ccc([C@H](CCCCN2CCC(c3ccc4c(c3)n(C3CCCC3)c3nc(=O)c5c(Br)cccc5n43)CC2)NC(=O)[C@@H]2C[C@@H](O)CN2C(=O)[C@@H](NC(=O)C2(F)CC2)C(C)(C)C)cc1 : SMARCA2 Dmax on SMARCA2 (Homo sapiens, UniProt P51531) = 66

----------
# measurement.notes: Pharmacokinetic analyses in mouse
# Assay type: in vivo
# stated.conditions: mouse, plasma, oral, 30 mg/kg, 30 mg/kg p.o.; time 6 h; individual animals; read-out: Concentration
endpoint: concentration at 6 h (nM)
Give just the number in nM; leave the unit off.

Cc1ncsc1-c1ccc(C(CCC(C)CCN2CCC(c3ccc4c(c3)n(C3CCCC3)c3nc(=O)c5c(Br)cccc5n43)CC2)NC(=O)C2CC(O)CN2C(=O)C(NC(=O)C2(F)CC2)C(C)(C)C)cc1 (stereo not shown) yielded concentration at 6 h of 2750

----------
Let's look at some molecules and their measured cooperativity α (PBRM1BD).
# Test system: PBRM1BD5
# measurement.notes: TR-FRET ternary complex affinity and cooperativity, PBRM1
# Type: binding
# stated.conditions: ratio TR-FRET EC50 / TR-FRET EC50 +VCB measured in the same run, PBRM1BD5
The answer should be written as a number, with no unit following it.

// cooperativity α (PBRM1BD) value for Cc1ncsc1-c1ccc([C@H](COCCN2CCC(c3ccc4c(c3)n(C3CCCC3)c3nc(=O)c5c(Br)cccc5n43)CC2)NC(=O)[C@@H]2C[C@@H](O)CN2C(=O)[C@@H](NC(=O)C2(N(C)C)CC2)C(C)(C)C)cc1 [compound 26] : 4.0

Memo: Cc1ncsc1-c1ccc([C@H](CC[C@H](C)CCN2CCC(c3ccc4c(c3)n(C3CCCC3)c3nc(=O)c5c(Br)cccc5n43)CC2)NC(=O)[C@@H]2C[C@H](O)CN2C(=O)[C@@H](NC(=O)C2(F)CC2)C(C)(C)C)cc1 [compound 12] , reported cooperativity α (PBRM1BD): 1.0

For reference, reported cooperativity α (PBRM1BD) for Cc1ncsc1-c1ccc([C@H](COC(C)CN2CCC(c3ccc4c(c3)n(C3CCCC3)c3nc(=O)c5c(Br)cccc5n43)CC2)NC(=O)[C@@H]2C[C@@H](O)CN2C(=O)[C@@H](NC(=O)C2(F)CC2)C(C)(C)C)cc1 (stereo partly shown) [compound 9] stands at 5.5

Record summary for Cc1ncsc1-c1ccc(CNC(=O)[C@@H]2C[C@@H](O)CN2C(=O)[C@@H](NC(=O)C2(F)CC2)C(C)(C)C)c(OCCOCCOCCN2CCC(c3ccc4c(c3)n(C3CCCC3)c3nc(=O)c5c(Br)cccc5n43)CC2)c1 [compound 21] : reported cooperativity α (PBRM1BD) = 2.0

----------
# measurement.notes: Microsomal stability
# Assay type: in vitro ADME
# stated.conditions: mouse liver microsomes
# Experimental: […] Reactions were terminated by addition of acetonitrile and precipitates separated by centrifugation. Compound concentrations in supernatants were measured by HPLC-MS/MS and clearance was calculated from compound half-lives using the well-stirred liver model.
endpoint: Mic. Stab. Mouse (% QH)
Respond with the bare value in % QH.

See these solved cases before continuing.
{"columns": ["compound", "Mic. Stab. Mouse, % QH"],
 "data": [
  ["Cc1ncsc1-c1ccc(CNC(=O)[C@@H]2C[C@H](O)CN2C(=O)[C@@H](NC(=O)C2(F)CC2)C(C)(C)C)c(OCCN2CCC(c3ccc4c(c3)n(C3CCCC3)c3nc(=O)c5c(Br)cccc5n43)CC2)c1 [compound 19]", 68],
  ["Cc1ncsc1-c1ccc(CNC(=O)[C@@H]2C[C@@H](O)CN2C(=O)[C@@H](NC(=O)C2(F)CC2)C(C)(C)C)c(OCCN2CCC(c3ccc4c(c3)n(C3CCCC3)c3nc(=O)c5c(Br)cccc5n43)CC2)c1 [compound 20]", 76],
  ["Cc1ncsc1-c1ccc([C@@H](COCCN2CCC(c3ccc4c(c3)n(C3CCCC3)c3nc(=O)c5c(Br)cccc5n43)CC2)NC(=O)[C@@H]2C[C@@H](O)CN2C(=O)[C@@H](NC(=O)C2(F)CC2)C(C)(C)C)cc1 [compound 24]", 40],
  ["Cc1ncsc1-c1ccc([C@H](COC(C)CN2CCC(c3ccc4c(c3)n(C3CCCC3)c3nc(=O)c5c(Br)cccc5n43)CC2)NC(=O)[C@@H]2C[C@@H](O)CN2C(=O)[C@@H](NC(=O)C2(F)CC2)C(C)(C)C)cc1 (stereo partly drawn) [compound 9]", 27]
]}

Pending compound:
Mic. Stab. Mouse recorded for this compound, Cc1ncsc1-c1ccc(CNC(=O)[C@@H]2C[C@@H](O)CN2C(=O)[C@@H](NC(=O)C2(F)CC2)C(C)(C)C)c(OCCOCCOCCOCCN2CCC(c3ccc4c(c3)n(C3CCCC3)c3nc(=O)c5c(Br)cccc5n43)CC2)c1 [compound 22] , is 58

----------
# target.or.test.system: VCB: PROTAC: SMARCA2^BD ternary complex (Homo sapiens, UniProt P40337+P51531)
# Sequence (P40337 54-213): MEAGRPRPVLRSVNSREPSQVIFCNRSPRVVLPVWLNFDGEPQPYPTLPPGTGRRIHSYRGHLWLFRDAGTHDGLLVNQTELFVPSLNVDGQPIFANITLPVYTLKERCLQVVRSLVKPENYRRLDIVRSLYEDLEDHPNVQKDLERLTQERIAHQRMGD
# Sequence (Q15369 17-112 partner limits assumed): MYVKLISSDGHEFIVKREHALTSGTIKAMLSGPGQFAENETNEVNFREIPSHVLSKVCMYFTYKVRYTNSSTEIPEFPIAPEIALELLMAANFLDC
# Sequence (Q15370 1-104 partner limits assumed): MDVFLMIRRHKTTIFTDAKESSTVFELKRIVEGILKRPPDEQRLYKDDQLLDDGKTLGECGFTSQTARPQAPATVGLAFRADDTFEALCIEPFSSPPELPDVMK
# Sequence (P51531 1373-1493 isoform P51531-2): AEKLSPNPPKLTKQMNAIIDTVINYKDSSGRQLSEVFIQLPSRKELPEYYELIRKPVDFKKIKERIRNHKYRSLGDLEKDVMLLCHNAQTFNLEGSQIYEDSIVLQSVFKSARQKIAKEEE
# measurement.notes: SPR ternary complex measurement, VCB immobilised, 10 µM SMARCA2^BD present
# Type: binding
# Set-up: P51531-2, residues 1373-1493 with additional N-terminal SM residues; His6 (TEV site) (N, cleaved yes); GST (TEV site) (N, cleaved yes); made in house; host or cells: SMARCA2^BD: Escherichia coli BL21(DE3)
# stated.conditions: cooperativity, SMARCA2; ratio of KD values measured in the same run
alpha by entry:
Provide a numeric answer; units are not to be included.

Field: example entries. Status: answers known.
{"columns": ["compound", "endpoint", "reported.value"],
 "data": [
  ["Cc1ncsc1-c1ccc([C@H](CCC(C)(C)CCN2CCC(c3ccc4c(c3)n(C3CCCC3)c3nc(=O)c5c(Br)cccc5n43)CC2)NC(=O)[C@@H]2C[C@@H](O)CN2C(=O)[C@@H](NC(=O)C2(F)CC2)C(C)(C)C)cc1", "alpha", 0.3],
  ["Cc1ncsc1-c1ccc(CNC(=O)[C@@H]2C[C@@H](O)CN2C(=O)[C@@H](NC(=O)C2(F)CC2)C(C)(C)C)c(OCCCCN2CCC(c3ccc4c(c3)n(C3CCCC3)c3nc(=O)c5c(Br)cccc5n43)CC2)c1", "alpha", 0.1],
  ["Cc1ncsc1-c1ccc([C@H](COC(C)CN2CCC(c3ccc4c(c3)n(C3CCCC3)c3nc(=O)c5c(Br)cccc5n43)CC2)NC(=O)[C@@H]2C[C@@H](O)CN2C(=O)[C@@H](NC(=O)C2(N(C)C)CC2)C(C)(C)C)cc1 (some centres unmarked)", "alpha", 0.8],
  ["Cc1ncsc1-c1ccc(C(CCC(C)CCN2CCC(c3ccc4c(c3)n(C3CCCC3)c3nc(=O)c5c(Br)cccc5n43)CC2)NC(=O)C2CC(O)CN2C(=O)C(NC(=O)C2(F)CC2)C(C)(C)C)cc1 (centres unmarked)", "alpha", 0.8],
  ["Cc1ncsc1-c1ccc([C@H](COCCCN2CCC(c3ccc4c(c3)n(C3CCCC3)c3nc(=O)c5c(Br)cccc5n43)CC2)NC(=O)[C@@H]2C[C@@H](O)CN2C(=O)[C@@H](NC(=O)C2(F)CC2)C(C)(C)C)cc1", "alpha", 0.5],
  ["Cc1ncsc1-c1ccc([C@H](CCCCCN2CCC(c3ccc4c(c3)n(C3CCCC3)c3nc(=O)c5c(Br)cccc5n43)CC2)NC(=O)[C@@H]2C[C@@H](O)CN2C(=O)[C@@H](NC(=O)C2(F)CC2)C(C)(C)C)cc1", "alpha", 0.3],
  ["Cc1ncsc1-c1ccc(CNC(=O)[C@@H]2C[C@@H](O)CN2C(=O)[C@@H](NC(=O)C2(F)CC2)C(C)(C)C)c(OCCN2CCC(c3ccc4c(c3)n(C3CCCC3)c3nc(=O)c5c(Br)cccc5n43)CC2)c1", "alpha", 0.1],
  ["Cc1ncsc1-c1ccc([C@H](COC(C)(C)CN2CCC(c3ccc4c(c3)n(C3CCCC3)c3nc(=O)c5c(Br)cccc5n43)CC2)NC(=O)[C@@H]2C[C@@H](O)CN2C(=O)[C@@H](NC(=O)C2(F)CC2)C(C)(C)C)cc1", "alpha", 0.5]
]}

Sure, the documented alpha for Cc1ncsc1-c1ccc([C@H](COC(C)CN2CCC(c3ccc4c(c3)n(C3CCCC3)c3nc(=O)c5c(Br)cccc5n43)CC2)NC(=O)[C@@H]2C[C@@H](O)CN2C(=O)[C@@H](NC(=O)C2(F)CC2)C(C)(C)C)cc1 (some centres unmarked) is 0.2

Per the record, Cc1ncsc1-c1ccc(CNC(=O)[C@@H]2C[C@@H](O)CN2C(=O)[C@@H](NC(=O)C2(F)CC2)C(C)(C)C)c(OCCOCCOCCN2CCC(c3ccc4c(c3)n(C3CCCC3)c3nc(=O)c5c(Br)cccc5n43)CC2)c1 has alpha of 0.4
